biological target: AC8-Nt/CaM (Homo sapiens, UniProt P0DP23); construct: made in house; host or cells: E. coli BL21-CodonPlus (DE3)-RIPL; assay: AC8-Nt/CaM FP counterscreen assay; assay type: binding; conditions: ratio >1: more potent in AC1/CaM FP;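 further: fluorescence polarization of AC peptide binding GST-CaM in HEPES buffer with CaCl2, compound preincubated with CaM 30 min, peptide read after 2 h at room temperature in dark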
quantityMeasured: Ki ratio (AC8 NT/AC1)

// below: answered molecules
CCNC(=O)c1cc2c(=O)n(C)c(=O)n(C)c2s1 :: AC1 Selective
CN1CCN(CCNC(=O)c2cc3c(=O)n(C)c(=O)n(C)c3s2)CC1 :: AC1 Selective
O=S(=O)(Nc1ccc2c(c1)N(S(=O)(=O)c1ccc(F)cc1)CCC2)c1cccc(F)c1 :: AC1 Selective
CC(=O)Oc1c(Sc2ccc(Cl)cc2)c(C)nn1C(C)(C)C :: AC1 Selective
Cc1ccc(S(=O)(=O)Nc2cc(N3CCCS3(=O)=O)ccc2C)cc1 :: AC1 Selective
CCc1cc(C(c2cccs2)N2CCN(C)CC2)c(NC(=O)c2ccco2)s1 (centres unmarked) :: AC1 Selective

Query (molecule): Cn1cc(C(=O)Nc2ccc(Cl)cc2Cl)c2[nH]c(=O)n(-c3ccc(Cl)cc3)c(=O)c21 ; field requested: Ki ratio (AC8 NT/AC1)
AC1 Selective

Query (molecule): CCC12CN3CC(CC)(CN(C1)C31C(=O)N(C)c3ccc(Br)cc31)C2=O (centres unmarked) ; field requested: Ki ratio (AC8 NT/AC1)
AC1 Selective
